Sourced from patent US20260217698A1

assay_target: VEGFR2 (Homo sapiens, UniProt P35968)
Sequence (P35968 790-1356 limits assumed): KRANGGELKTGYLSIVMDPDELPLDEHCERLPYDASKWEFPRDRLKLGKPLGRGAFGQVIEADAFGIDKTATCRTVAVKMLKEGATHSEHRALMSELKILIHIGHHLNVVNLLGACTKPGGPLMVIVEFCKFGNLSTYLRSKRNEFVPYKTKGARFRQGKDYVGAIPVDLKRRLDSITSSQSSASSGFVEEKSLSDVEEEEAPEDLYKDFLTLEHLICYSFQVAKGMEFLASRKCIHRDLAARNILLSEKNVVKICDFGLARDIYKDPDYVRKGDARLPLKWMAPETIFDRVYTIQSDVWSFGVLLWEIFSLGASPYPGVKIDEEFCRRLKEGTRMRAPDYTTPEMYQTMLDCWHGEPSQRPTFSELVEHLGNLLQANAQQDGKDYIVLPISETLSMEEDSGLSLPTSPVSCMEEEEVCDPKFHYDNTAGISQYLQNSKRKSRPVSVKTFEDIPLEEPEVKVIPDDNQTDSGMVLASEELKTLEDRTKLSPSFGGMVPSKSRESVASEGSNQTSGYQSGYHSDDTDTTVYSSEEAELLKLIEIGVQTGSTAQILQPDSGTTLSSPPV
experiment_summary: Kinase inhibition, Mobility Shift Assay/IMAP, VEGFR2
Type: biochemical
Set-up: purchased Carna 08-191
measured_attribute: IC50 (pM)

# example entries with known answers
>  <mol>
NC(=O)c1c(OCc2cc(C(=O)NC3CC3)cc(F)c2F)nsc1NC(=O)NCCCCN1CCCC1

>  <measured_attribute>
IC50

>  <unit_text>
pM

>  <reported_measurement>
500

$$$$
>  <mol>
COc1ccc(F)c(COc2nsc(NC(=O)NCCC3CCN(CCF)CC3)c2C(N)=O)c1F

>  <measured_attribute>
IC50

>  <unit_text>
pM

>  <reported_measurement>
14600

$$$$

1. NC(=O)c1c(OCc2cc(C(=O)NC3CC3)ccc2Cl)nsc1NC(=O)NCCCN1CC[C@H](F)C1
2. NC(=O)c1c(OCc2cc(C(=O)NC3CC3)ccc2F)nsc1NC(=O)NCCCN1CC[C@H](F)C1
Enquiry: Returns: the argument ( 1 or 2 ) having the larger IC50. Choose, then provide that item's label.
Return: 2

====

System: melanin
experiment_summary: Binding capacity of compounds to melanin
Type: in vitro ADME, cuttlefish (Sepia officinalis)
condition_set: cuttlefish (Sepia officinalis), melanin suspension (1 mg/mL); 1 mg/mL melanin in PBS pH 7.4, 2 μM compound, 2 h at 37° C.; read-out: Fu % (percentage of free drug)
measured_attribute: fraction unbound at 2 h, 2 μM

>  <molecule>
COc1ccc(F)c(COc2nsc(NC(=O)NCCCCN3CCCC3)c2C(N)=O)c1 [Compound T092]

>  <fraction unbound at 2 h, 2 μM>
0.031

$$$$
>  <molecule>
COc1ccc(F)c(COc2nsc(NC(=O)NCCCCN3CCOCC3)c2C(N)=O)c1F [Compound T132]

>  <fraction unbound at 2 h, 2 μM>
0.0363

$$$$
>  <molecule>
COc1ccc(F)c(COc2nsc(NC(=O)NCCCN3CC[C@H](F)C3)c2C(N)=O)c1F [Compound T120]

>  <fraction unbound at 2 h, 2 μM>
0.0173

$$$$
>  <molecule>
NC(=O)c1c(OCc2ccc3c(c2)OCC3)nsc1NC(=O)NCCC1CCN(C2CC2)CC1 [Compound T083]

>  <fraction unbound at 2 h, 2 μM>
0.0749

$$$$
>  <molecule>
NC(=O)c1c(OCc2cc3c(cc2F)CCO3)nsc1NC(=O)NCCCCN1CC[C@@H](O)C1 [Compound T091]

>  <fraction unbound at 2 h, 2 μM>
0.0286

$$$$
>  <molecule>
NC(=O)c1c(OCc2c(F)cc3c(c2F)OCC3)nsc1NC(=O)NCCCCN1CC[C@H](O)C1 [Compound T134]

>  <fraction unbound at 2 h, 2 μM>
0.0401

$$$$
>  <molecule>
NC(=O)c1c(OCc2c(F)ccc(C(=O)NC3CC3)c2F)nsc1NC(=O)NCCCCN1CCCC1 [Compound T124]

>  <fraction unbound at 2 h, 2 μM>
0.0707

$$$$
>  <molecule>
CN1CC[C@@H](CCNC(=O)Nc2snc(OCc3cc4c(cc3F)CCO4)c2C(N)=O)C1 [Compound T102]

>  <fraction unbound at 2 h, 2 μM>
0.0235

$$$$

P. CN1CCC(CCNC(=O)Nc2snc(OCc3cc(F)c4c(c3)OCC4)c2C(N)=O)CC1 [Compound T089]
Q. NC(=O)c1c(OCc2cc3c(cc2F)CCO3)nsc1NC(=O)NCCCCN1CC[C@H](F)C1 [Compound T115]
Enquiry: Lower fraction unbound at 2 h, 2 μM: P or Q ? Let me know the label of the one you choose.
Return: Q
(Q: 0.0148, P: 0.0235)

====

So I've got IC50 readings for VEGFR3 (Homo sapiens), take a look.
measured_attribute: IC50 (µM)

These solved cases illustrate the format of a correct answer.
>  <mol>
NC(=O)c1c(OCc2cc(C(=O)NC3CC3)ccc2F)nsc1NC(=O)NCCCCN1CCCC1

>  <assay_target>
VEGFR3 (Homo sapiens)
Sequence (P35916 25-1363): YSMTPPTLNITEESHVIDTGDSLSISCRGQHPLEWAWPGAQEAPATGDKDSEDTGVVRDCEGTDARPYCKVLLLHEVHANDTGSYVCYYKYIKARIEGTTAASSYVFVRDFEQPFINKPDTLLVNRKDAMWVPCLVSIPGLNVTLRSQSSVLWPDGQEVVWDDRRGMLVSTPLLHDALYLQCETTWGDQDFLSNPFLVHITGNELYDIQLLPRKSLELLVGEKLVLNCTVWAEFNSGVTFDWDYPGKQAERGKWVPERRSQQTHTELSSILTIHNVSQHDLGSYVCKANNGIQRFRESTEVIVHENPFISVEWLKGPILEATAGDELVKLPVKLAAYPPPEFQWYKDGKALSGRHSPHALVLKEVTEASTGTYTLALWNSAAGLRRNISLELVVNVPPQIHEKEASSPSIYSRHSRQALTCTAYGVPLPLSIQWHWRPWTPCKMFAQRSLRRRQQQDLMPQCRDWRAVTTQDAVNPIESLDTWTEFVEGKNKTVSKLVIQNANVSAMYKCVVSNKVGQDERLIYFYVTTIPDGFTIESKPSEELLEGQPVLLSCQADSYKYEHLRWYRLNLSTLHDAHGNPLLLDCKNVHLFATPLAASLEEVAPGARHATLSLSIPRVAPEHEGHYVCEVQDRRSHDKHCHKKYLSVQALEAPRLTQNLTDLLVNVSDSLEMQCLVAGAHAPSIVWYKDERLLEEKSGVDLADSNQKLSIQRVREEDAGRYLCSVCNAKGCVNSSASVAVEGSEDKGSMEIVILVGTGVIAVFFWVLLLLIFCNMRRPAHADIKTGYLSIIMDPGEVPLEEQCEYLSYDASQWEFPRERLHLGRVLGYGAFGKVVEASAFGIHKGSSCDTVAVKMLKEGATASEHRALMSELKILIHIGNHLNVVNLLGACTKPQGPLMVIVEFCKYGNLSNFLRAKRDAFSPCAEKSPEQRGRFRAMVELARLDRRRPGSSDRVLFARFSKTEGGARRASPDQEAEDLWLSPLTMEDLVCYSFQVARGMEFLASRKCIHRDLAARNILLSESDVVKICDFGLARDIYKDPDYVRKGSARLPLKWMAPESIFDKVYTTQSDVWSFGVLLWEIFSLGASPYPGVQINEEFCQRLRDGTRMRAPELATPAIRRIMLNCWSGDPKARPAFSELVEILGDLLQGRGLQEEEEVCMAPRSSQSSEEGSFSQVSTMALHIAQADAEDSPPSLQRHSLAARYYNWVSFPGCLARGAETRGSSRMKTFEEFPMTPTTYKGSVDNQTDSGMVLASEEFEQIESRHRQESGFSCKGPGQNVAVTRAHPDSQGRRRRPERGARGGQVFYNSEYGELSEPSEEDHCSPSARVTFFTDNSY

>  <reported_measurement>
0.0008

$$$$
>  <mol>
NC(=O)c1c(OCc2cccc(C(=O)NC3CC3)c2)nsc1NC(=O)NCCCCN1CCCC1

>  <assay_target>
VEGFR3 (Homo sapiens)

>  <reported_measurement>
0.0132

$$$$
>  <mol>
NC(=O)c1c(OCc2cc3c(cc2F)CCO3)nsc1NC(=O)NCCCCN1CCCC1

>  <assay_target>
VEGFR3 (Homo sapiens)

>  <reported_measurement>
0.0187

$$$$
>  <mol>
NC(=O)c1c(OCc2cc3c(cc2F)CCO3)nsc1NC(=O)NCCN1CCCCC1

>  <assay_target>
VEGFR3 (Homo sapiens)

>  <reported_measurement>
0.0485

$$$$
>  <mol>
CNC(=O)c1cccc(COc2nsc(NC(=O)NCCC3CCN(C)CC3)c2C(N)=O)c1

>  <assay_target>
VEGFR3 (Homo sapiens)

>  <reported_measurement>
0.0393

$$$$

1. CN1CCN(CCNC(=O)Nc2snc(OCc3cccc(C(=O)NC4CC4)c3)c2C(N)=O)CC1
2. NC(=O)c1c(OCc2cc3c(cc2F)CCO3)nsc1NC(=O)NCCCCN1CC[C@H](O)C1
Enquiry: Sort 1 and 2 by IC50 descending and give the first. Please indicate the selected item by its label.
Return: 1
(1: 0.0241 µM, 2: 0.013 µM)

1. NC(=O)c1c(OCc2cc3c(cc2F)CCO3)nsc1NC(=O)NCCN1CC[C@@H](F)C1
2. NC(=O)c1c(OCc2ccc3c(c2)OCC3)nsc1NC(=O)NCCCCN1CCCC1
3. NC(=O)c1c(OCc2ccc(F)c(C(=O)NC3CC3)c2)nsc1NC(=O)NCCCCN1CCCC1
Enquiry: Put the items in order so that reported IC50 rises from first to last. Write out the labels following the order that was asked for.
Return: 3, 1, 2
(3: 0.00391 µM, 1: 0.0239 µM, 2: 0.042 µM)

I. CN(C)CCCn1ncc(Nc2snc(OCc3c(F)cc(Br)cc3F)c2C(N)=O)n1
II. NC(=O)c1c(OCc2ccc3c(c2)OCC3)nsc1NC(=O)NCCC1CCN(CCF)CC1
III. CN1CCC(CCNC(=O)Nc2snc(OCc3cc4c(cc3F)CCO4)c2C(N)=O)CC1
Enquiry: Kindly order the items shown according to IC50, from the highest value down. Returns: the labels arranged in the requested order.
Return: II, I, III

1. CN1CCN(CCCNC(=O)Nc2snc(OCc3ccc(F)c(C(=O)NC4CC4)c3)c2C(N)=O)CC1
2. NC(=O)c1c(OCc2ccc3ccoc3c2)nsc1NC(=O)NCCCCN1CCCC1
Enquiry: Identify the entry with the smaller IC50: 1 or 2 . Kindly state the label of the option you pick.
Return: 1

I. NC(=O)c1c(OCc2ccc3c(c2)OCC3)nsc1NC(=O)NCCC1CCN(C2CC2)CC1
II. CNC(=O)c1cc(COc2nsc(NC(=O)NCCCCN3CCCC3)c2C(N)=O)ccc1F
III. CN1CCN(CCCNC(=O)Nc2snc(OCc3cccc(C(=O)NC4CC4)c3)c2C(N)=O)CC1
Enquiry: Reorder the items by IC50, least to greatest. Please express your ranking as an ordered list of the labels.
Return: III, I, II
(III: 0.0146 µM, I: 0.0223 µM, II: 0.0501 µM)

====

assay_target: VEGFR2 (Homo sapiens, UniProt P35968)
experiment_summary: Kinase inhibition, Mobility Shift Assay/IMAP, VEGFR2
Format: biochemical
Design: purchased Carna 08-191
measured_attribute: IC50 (nM)

>  <molecule>
CN1CCC(CCNC(=O)Nc2snc(OCc3ccc4c(c3F)OCC4)c2C(N)=O)CC1 [Compound T075]

>  <unit_text>
nM

>  <IC50>
23

$$$$
>  <molecule>
NC(=O)c1c(OCc2c(F)ccc(C(=O)NC3CC3)c2F)nsc1NC(=O)NCCCCN1CCCC1 [Compound T124]

>  <unit_text>
nM

>  <IC50>
2.2

$$$$
>  <molecule>
NC(=O)c1c(OCc2ccc(F)c(C(=O)NC3CC3)c2)nsc1NC(=O)NCCCCN1CC[C@@H](O)C1 [Compound T150]

>  <unit_text>
nM

>  <IC50>
1.2

$$$$

A. NCCCNC(=O)Nc1snc(OCc2cc(C(=O)NC3CC3)ccc2F)c1C(N)=O [Compound T167]
B. COc1cc(COc2nsc(NC(=O)NCCCCN3CC[C@@H](F)C3)c2C(N)=O)cc(OC)c1 [Compound T064]
Enquiry: Record comparison, field IC50: mark the lower of A and B . Label of pick, please.
Return: A

====

assay_target: VEGFR2 (Homo sapiens, UniProt P35968)
experiment_summary: Kinase inhibition, Mobility Shift Assay/IMAP, VEGFR2
Type: biochemical
Set-up: purchased Carna 08-191
measured_attribute: IC50 (nM)

Completed entries (count: 5):
>  <mol>
NC(=O)c1c(OCc2cc(C(=O)NC3CC3)ccc2F)nsc1NC(=O)NCCCN1CC[C@@H](O)C1

>  <measured_attribute>
IC50

>  <unit_text>
nM

>  <reported_measurement>
1.64

$$$$
>  <mol>
NC(=O)c1c(OCc2ccc3c(c2)OCC3)nsc1NC(=O)NCCCCN1CCCC1

>  <measured_attribute>
IC50

>  <unit_text>
nM

>  <reported_measurement>
14.2

$$$$
>  <mol>
Cn1nc(COc2nsc(NC(=O)NCCCCN3CCCC3)c2C(N)=O)c2ccccc21

>  <measured_attribute>
IC50

>  <unit_text>
nM

>  <reported_measurement>
130

$$$$
>  <mol>
CNC(=O)c1cccc(COc2nsc(NC(=O)NCCC3CCN(C)CC3)c2C(N)=O)c1

>  <measured_attribute>
IC50

>  <unit_text>
nM

>  <reported_measurement>
15.7

$$$$
>  <mol>
NC(=O)c1c(OCc2cc(C(=O)NC3CC3)ccc2F)nsc1NC(=O)NCCC1CCN(CCF)CC1

>  <measured_attribute>
IC50

>  <unit_text>
nM

>  <reported_measurement>
0.72

$$$$

I. CC(C)NC(=O)c1cccc(COc2nsc(NC(=O)NCCCCN3CCCC3)c2C(N)=O)c1
II. NC(=O)c1c(OCc2c(F)cc(Br)cc2F)nsc1Nc1cnn(CCN2CCNCC2)c1
III. COc1ccc(F)c(COc2nsc(NC(=O)NCCCN3CC[C@H](F)C3)c2C(N)=O)c1F
IV. COc1ccc(F)c(COc2nsc(NC(=O)NCCCCN3CC[C@H](F)C3)c2C(N)=O)c1F
V. COc1cc(OC)c(F)c(COc2nsc(NC(=O)NCCCCN3CC[C@H](O)C3)c2C(N)=O)c1F
Enquiry: Order the entries by their reported IC50, beginning at the minimum. Kindly provide the labels arranged according to the requested ordering.
Return: V, II, IV, III, I

I. NC(=O)c1c(OCc2cccc(OC3CC3)c2)nsc1NC(=O)NCCCCN1CCCC1
II. COc1ccc(F)c(COc2nsc(NC(=O)NCCCCN3CC[C@@H](F)C3)c2C(N)=O)c1F
III. CC(=O)N1CCN(CCCNC(=O)Nc2snc(OCc3ccc(F)c(C(=O)NC4CC4)c3)c2C(N)=O)CC1
IV. CN1CCN(CCCNC(=O)Nc2snc(OCc3cc4c(cc3F)CCO4)c2C(N)=O)CC1
Enquiry: Please produce an ascending ranking of these compounds based on IC50. Give your ranking as a list of the labels in the requested order.
Return: III, IV, II, I

A. CCNC(=O)c1cccc(COc2nsc(NC(=O)NCCCCN3CCCC3)c2C(N)=O)c1
B. NC(=O)c1c(OCc2cc(C(=O)NC3CC3)ccc2F)nsc1NC(=O)NCCCN1CCN(C2CC2)CC1
Enquiry: Of the pair A and B , name the member with the lesser recorded IC50. The response must carry the label of the picked entry.
Return: B
